Reported IC50 by item:
- System: HCT 116 p53^−/− cells
- assayExplanation: MTS cytotoxicity assay, HCT 116 p53-/-
- Format: cell-based, human
- conditionSet: Homo sapiens; HCT 116 p53^−/−; 72 h incubation, MTS
The response must be a number in µM with no trailing unit.

Here's what some known entries look like.
COc1ccc(/C=C/c2nc(NCCCN(C)C)c3ccccc3n2)cc1 [CP-31398, reference compound]; 26.3
COc1ccccc1/C=C/c1nc(OS(=O)(=O)c2cc3c(cc2Br)OCO3)c2ccccc2n1 [BS2]; 1.31
COc1ccccc1/C=C/c1nc(OS(=O)(=O)c2ccc(C)cc2)c2ccc(Cl)cc2n1 [BS3]; 0.239

Query :: Which IC50 reading was recorded for the compound COc1ccccc1/C=C/c1nc(OS(=O)(=O)c2ccc(C)cc2)c2ccccc2n1 [BS4] ?
Result :: 3.72

Query :: Which IC50 reading was recorded for the compound COc1ccc(/C=C/c2nc(OS(=O)(=O)c3ccc(C)cc3)c3ccccc3n2)c(OC)c1 [BS6] ?
Result :: 21.7

Query :: Which IC50 reading was recorded for the compound COc1ccccc1/C=C/c1nc(OS(=O)(=O)c2ccc3c(c2)OCO3)c2ccccc2n1 [BS1] ?
Result :: 0.563
